Origin of measurements: ChEMBL document CHEMBL1781920

Quick reference for MIC among some compounds
Test system: Bacillus subtilis
assay overview: Antibacterial activity against Bacillus subtilis ATCC 6633 after 24 hrs by serial dilution method
Type: functional
experimental conditions: ATCC 6633, 24 h
Note: unit µg/mL is implicit; provide only the numeric part.

Answered examples (4):
smiles=O=C(N[C@H](CO)[C@H](O)c1ccc([N+](=O)[O-])cc1)C(Cl)Cl observable=MIC reading=3.12
smiles=CC(=O)c1cc(-c2c(C)[nH]n(-c3ccccc3)c2=O)oc1C observable=MIC reading=3.12
smiles=Cc1nn(-c2ccccc2)c2c1/C(=N/c1nnc[nH]1)CO2 observable=MIC reading=6.25
smiles=Cc1[nH]n(-c2ccccc2)c(=O)c1C(=O)c1oc2ccccc2c1C observable=MIC reading=6.25

The recorded MIC for `Cc1nn(-c2ccccc2)c2c1/C(=N/c1nc3ccccc3[nH]1)CO2` is 3.12
